Data provenance is patent US20110158985A1.

systemTested: T1, RSV F glycoprotein (NUF4) (respiratory syncytial virus)
T1 chain 1: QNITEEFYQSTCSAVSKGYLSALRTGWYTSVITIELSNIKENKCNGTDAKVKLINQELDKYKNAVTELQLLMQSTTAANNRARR
T1 chain 2: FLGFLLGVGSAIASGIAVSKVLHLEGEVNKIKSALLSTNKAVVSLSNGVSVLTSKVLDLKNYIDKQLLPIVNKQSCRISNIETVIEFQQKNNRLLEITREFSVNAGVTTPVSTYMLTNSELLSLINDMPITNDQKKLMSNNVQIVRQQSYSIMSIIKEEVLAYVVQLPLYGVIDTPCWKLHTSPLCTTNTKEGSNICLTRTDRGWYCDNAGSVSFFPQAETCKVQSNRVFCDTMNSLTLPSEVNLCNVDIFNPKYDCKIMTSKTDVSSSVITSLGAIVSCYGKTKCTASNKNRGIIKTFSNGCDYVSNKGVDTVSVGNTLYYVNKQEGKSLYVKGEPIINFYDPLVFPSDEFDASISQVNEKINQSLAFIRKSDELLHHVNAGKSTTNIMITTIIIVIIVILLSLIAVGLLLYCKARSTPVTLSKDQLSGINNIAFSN
assayOverview: SPR (BIAcore), mAb vs NUF4 (2:1)
Measured kon, listed per entry for reference.
propertyName: kon (M⁻¹ s⁻¹)

• A17d4(1) IgG (antibody, V domains shown) VH: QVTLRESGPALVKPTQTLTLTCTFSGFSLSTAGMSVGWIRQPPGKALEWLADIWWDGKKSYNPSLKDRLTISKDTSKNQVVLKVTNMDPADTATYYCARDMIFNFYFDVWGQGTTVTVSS VL: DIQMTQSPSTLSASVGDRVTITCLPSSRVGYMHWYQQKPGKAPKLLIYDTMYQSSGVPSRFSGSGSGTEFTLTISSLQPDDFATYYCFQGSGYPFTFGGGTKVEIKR = 264000
• P11d4 IgG (antibody, V domains shown) VH: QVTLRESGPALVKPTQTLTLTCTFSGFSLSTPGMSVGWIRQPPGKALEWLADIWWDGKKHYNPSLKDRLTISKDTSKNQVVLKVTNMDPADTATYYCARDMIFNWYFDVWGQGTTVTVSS VL: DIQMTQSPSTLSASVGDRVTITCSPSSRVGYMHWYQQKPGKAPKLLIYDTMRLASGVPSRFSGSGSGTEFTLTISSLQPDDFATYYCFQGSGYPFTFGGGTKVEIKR = 366000
